# pIC50 values compiled below
system: protein-farnesyl transferase (PFT) (Rattus norvegicus, UniProt Q02293+Q04631)
Construct: PFT derived from rat brain
assay-summary: Inhibitory activities against protein-farnesyl transferase
test-settings: PFT derived from rat brain; prenyl acceptor H-ras protein or biotin-added Lys-Thr-Ser-Cys-Val-Ile-Met; 37° C., 20 minutes; read-out: 50% inhibitory concentrations against PFT activities, IC50
Description: Inhibitory activities against protein-farnesyl transferase […] The enzymatic reaction product containing H-ras protein as the prenyl acceptor, was analyzed by SDS-PAGE (sodium dodecylsulfate/polyacrylamide gel electrophoresis). […] The measurement of PFT activities using H-ras protein as the prenyl receptor, was also analyzed by a rapid separate method. […]
# pIC50: negative log10 of molar concentration; output just the value

C[C@H]([C@H](Cc1ccc(C(=O)Nc2ccccc2)o1)c1ccc([N+](=O)[O-])cc1)N(Cc1ccc2ccccc2c1)C(=O)CC(CC(=O)O)C(=O)O (some centres unmarked) | 9.22

Specify measured pIC50 for C[C@H]([C@H](Cc1cccc(C(=O)Nc2ccccc2)c1)c1ccc(Cl)cc1)N(Cc1ccc2ccccc2c1)C(=O)CC(CC(=O)O)C(=O)O (some centres unmarked) .
8.74
